Reference source for all entries: ChEMBL document CHEMBL1201862

# System: RXF 393
# PROTOCOL DESCRIPTION: NCI tumour cell line growth inhibition, 48 h
Calls of active or inactive are those of the source. Rule as the data show it: active = GI50 up to about 1.1 µM and inactive = higher.
MEASURE: GI50

Some solved entries appear below for comparison.
MOLECULE	MEASURE	REPORTED MEASUREMENT
CC(=O)Nc1ccc(OC2=CCN(C)CC2)cc1	GI50	> 100 µM (inactive)
N=C(N)SCc1ccc(Cl)c2ccccc12.O=[N+]([O-])c1ccc(O)c([N+](=O)[O-])c1	GI50	8.02 µM (inactive)
Cc1nc(-n2nc(-c3ccccc3)cc2-c2ccccc2)sc1C(=O)/C=C/c1ccc([N+](=O)[O-])cc1	GI50	16.7 µM (inactive)
O=C1c2ccccc2CC1C1(O)C(=O)Nc2ccccc21 (stereo not drawn)	GI50	> 100 µM (inactive)
COc1ccc(N2C(=O)C3c4[nH]c5cccc(C)c5c4C4CCC(C(C)(C)C)CC4C3C2=O)cc1 (stereo not drawn)	GI50	> 10 µM (inactive)

Dear colleague, could you send me GI50 for each of the items below? Thanks.
1. O=C(/C=C/c1ccc(-c2ccccc2[N+](=O)[O-])o1)NCc1ccc(C(=O)NCCc2ccccc2)cc1
2. CCCCCCCCCCCCCCCCCCCCCC(=O)Nc1ccn(C2OC(CO)C(O)C2O)c(=O)n1 (stereo not drawn)
3. CCCCc1c(OC)cc(O)c2c1C(=O)c1[nH]c(C(=O)O)c(O)c(=O)c1C2=O

1: > 100 µM (inactive); 2: > 100 µM (inactive); 3: 1.56 µM (inactive)

* * *

# Tested on: SK-OV-3
# PROTOCOL DESCRIPTION: NCI tumour cell line growth inhibition, 48 h
Activity calls are given as the source filed them. No stated cut-off is given here; in the data, active = GI50 up to about 1.1 µM and inactive = higher.
MEASURE: GI50

COMPOUND	GI50
C1=Cc2nc1c(-c1ccccc1)c1ccc([n-]1)c(-c1ccccc1)c1nc(c(-c3ccccc3)c3ccc([n-]3)c2-c2ccccc2)C=C1.[Zn+2]	> 100 µM (inactive)
O=C1OC(=O)C([Se]c2ccccc2)=C1[Se]c1ccccc1	> 100 µM (inactive)
CC(SC(=S)N(C)C)C(=O)Nc1nnc(-c2ccc(Cl)cc2)o1 (stereo not given)	> 100 µM (inactive)
O=C(c1c2c(cc3c1CC1(Cc4cc5c(cc4C1)CCCC5)C3)CCCC2)C(Br)Br	21.4 µM (inactive)

Next:
Please give the measured GI50 for this compound: CCSC1=N/C(=C\c2ccco2)C(NN)=N1
> 50 µM (inactive)

* * *

Form: system (HCT-15), quantity (GI50), values below.
Answers are plain numbers, in µM.

COMPOUND	RESULT UNITS	GI50
O=C1c2cc3c(cc2NC(c2ccccc2F)C1O)OCO3 (centres undefined)	µM	5.45

For each of the compounds below, note its GI50.
1. COc1ccc2c(c1)CCN1CCc3cc(OC)c(OC)cc3CC21 (centres undefined)
2. COc1ccc(C2CC(c3ccc(NS(=O)(=O)c4cc([N+](=O)[O-])ccc4C)cc3)=NN2S(=O)(=O)c2cc([N+](=O)[O-])ccc2C)cc1 (centres undefined)
3. CCOc1ccc(/N=N/C2C(=O)N(C(=O)CC(=O)Nc3ccccc3OC)N=C2C)cc1 (centres undefined)
4. Cc1cc(Cl)cc2c1NC(=O)C2(O)CC(=O)c1ccc(Br)cc1 (centres undefined)
5. C=C(C)C12OC1[C@@]1(C)C(=CC2=O)CCC(O)[C@@H]1C (some centres undefined)

1: 61; 2: 36.2; 3: 14.5; 4: 57; 5: 1.92

Give measured GI50 for every item shown.
1. Cc1c(C(=O)CC(=O)C(=O)Nc2c(C(C)C)cccc2C(C)C)[n+]([O-])c2ccccc2[n+]1[O-]
2. Nc1nc(N)c2cc(CNc3ccc(C(=O)NC(CC(=O)O)C(=O)O)c(Cl)c3)ccc2n1 (centres undefined)

1. 2.79
2. 0.0203

Provide reported GI50 for each item, in the same order as listed.
1. Cc1cc(NCCCCCCCCNc2cc(C)nc3cc(N(C)C)ccc23)c2ccc(N(C)C)cc2n1
2. CC(C)NC(=O)OCCN=C1c2ccccc2CCc2ccccc21
3. Cn1c(-c2ccccc2)c2cc3nc4ccccc4nc3cc2c1-c1ccccc1
4. O/N=C1/C(=C/c2ccc(Cl)c(Cl)c2)CCCC1C(NO)c1ccc(Cl)c(Cl)c1 (centres undefined)
5. O=C(C1OC1c1ccc(Cl)cc1)C12CC3CC(CC(C3)C1)C2 (centres undefined)
6. NC(=O)CCC(Nc1c2ccccc2[n+]([O-])c2ccccc12)C(=O)O (centres undefined)
7. CCC(C)(C)c1ccc(Oc2cccc(C(=O)O)c2)cc1

1. 34.8
2. 24.7
3. 4.65
4. 16.8
5. 20.1
6. 46.7
7. 39.5
